Recorded values, source the supplement of paper PMC12645437.

- assay system: T1, CRBN, Q96SW2;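 also: pooled lentiviral library of zinc finger degron-EGFP fusions in mCherry-positive Jurkat cells, FACS-sorted after compound exposure, with degron abundance counted by next-generation sequencing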
- T1 chain: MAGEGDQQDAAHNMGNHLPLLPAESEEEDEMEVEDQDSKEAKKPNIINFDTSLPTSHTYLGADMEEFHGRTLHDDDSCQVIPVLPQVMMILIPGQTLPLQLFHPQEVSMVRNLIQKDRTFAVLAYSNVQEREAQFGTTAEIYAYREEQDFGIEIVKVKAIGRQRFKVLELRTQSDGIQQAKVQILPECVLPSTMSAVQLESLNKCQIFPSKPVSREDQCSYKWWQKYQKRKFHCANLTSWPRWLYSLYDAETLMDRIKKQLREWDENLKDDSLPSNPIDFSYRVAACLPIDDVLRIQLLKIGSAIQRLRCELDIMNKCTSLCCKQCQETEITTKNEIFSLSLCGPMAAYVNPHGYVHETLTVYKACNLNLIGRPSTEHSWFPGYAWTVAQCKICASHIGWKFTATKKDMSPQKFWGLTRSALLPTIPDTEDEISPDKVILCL
- protocol details: log2 fold change of degron read counts, EGFP-low vs EGFP+ sorted cells (limma voom), compound-induced degradation; higher = more compound-induced degradation of the degron-EGFP fusion; degrons are variants of IKZF1/3 zinc finger 2; compound dose not given here
- condition context: Jurkat; 18 h; compound: compound 19 (5-tert-butyl-thalidomide)
Whole data set: some 8,300 sequences, median “log2 fold change of degron read counts, EGFP-low vs EGFP+ sorted cells (limma voom), compound-induced degradation” near -1.1, cut for the highest 2% near 3.2. The sample as a whole holds a higher share of the highest values than the screen did.
endpoint name: log2 fold change of degron read counts

Q. For the sequence FACPICGAKFTQKGNLLRHIKL [46F_47A_49P_50I_52G_53A_54K_55F_67L_, Q9UKT9] , report log2 fold change of degron read counts.
A. 3.43

Q. For the sequence FQCNICGAKFTQKGNLLRHIKL [46F_47Q_49N_50I_52G_53A_54K_55F_67L_, Q9UKT9] , report log2 fold change of degron read counts.
A. -1.16

Q. For the sequence FYCNICGAKFTQKGNLLRHIKL [46F_47Y_49N_50I_52G_53A_54K_55F_67L_, Q9UKT9] , report log2 fold change of degron read counts.
A. 1.97

Q. For the sequence FCCPICGAKFTQKGNLLRHIKL [46F_47C_49P_50I_52G_53A_54K_55F_67L_, Q9UKT9] , report log2 fold change of degron read counts.
A. 2.65

Q. For the sequence FGCPICGAKFTQKGNLLRHIKL [46F_47G_49P_50I_52G_53A_54K_55F_67L_, Q9UKT9] , report log2 fold change of degron read counts.
A. 3.59

Q. For the sequence FQCPICGAKFTQKGNLLRHIKL [46F_47Q_49P_50I_52G_53A_54K_55F_67L_, Q9UKT9] , report log2 fold change of degron read counts.
A. 0.535

Q. For the sequence FTCPICGAKFTQKGNLLRHIKL [46F_47T_49P_50I_52G_53A_54K_55F_67L_, Q9UKT9] , report log2 fold change of degron read counts.
A. 0.0311
